Target: GPR84 (Homo sapiens)
Construct: expressed in transfected cells
Assay: GPR84 [35S]GTPγS binding assay, HEPES buffer
Format: biochemical
Settings: 3,3′ di indolylmethane at EC80, membranes from stable cell line over expressing GPR84
Procedure: 1.1. Cell Based Assay: GTp-γ S Binding Assay. The following assay can be used for determination of GPR84 activation. The assay is performed in a 96 well plate where the following reagents are added. […] Plates are read on a Topcount reader (Perkin Elmer) immediately after centrifugation (readout time, 1 min/well).
pIC50: −log10 of the molar value.
# key: entry, value: pIC50

Example compounds with recorded pIC50:
INSERT INTO measurements (compound, readout_label, test_result) VALUES
  ('Cc1ccccc1COc1ccc2c(c1)CCn1c-2cc(OCC2CCCO2)nc1=O (centres unmarked) [compound 39]', 'pIC50', '7.00 to 11.00'),
  ('O=c1nc(OCC2CCCO2)cc2n1CCc1cc(OCc3ccccc3)ccc1-2 (centres unmarked) [compound 7]', 'pIC50', '7.00 to 11.00'),
  ('O=C1CN(CC#Cc2ccc3c(c2)CCn2c-3cc(OCC3COc4ncccc4O3)nc2=O)C(=O)N1 (centres unmarked) [compound 176]', 'pIC50', '6.30 to 7.00'),
  ('O=c1nc(OCC2COc3ncccc3O2)cc2n1CCc1cc(C#CCNc3ccccc3)ccc1-2 (centres unmarked) [compound 194]', 'pIC50', '7.00 to 11.00');

For the next question, use this compound.
Entry CC(C)(C)OC(=O)COc1ccc2c(c1)CCn1c-2cc(OCC2COc3ccccc3O2)nc1=O (centres unmarked) [compound 29] ; pIC50 = 7.00 to 11.00

---

Biological target: GPR84 (Homo sapiens, UniProt Q9NQS5)
Construct: expressed in transfected cells
Sequence (Q9NQS5 whole entry): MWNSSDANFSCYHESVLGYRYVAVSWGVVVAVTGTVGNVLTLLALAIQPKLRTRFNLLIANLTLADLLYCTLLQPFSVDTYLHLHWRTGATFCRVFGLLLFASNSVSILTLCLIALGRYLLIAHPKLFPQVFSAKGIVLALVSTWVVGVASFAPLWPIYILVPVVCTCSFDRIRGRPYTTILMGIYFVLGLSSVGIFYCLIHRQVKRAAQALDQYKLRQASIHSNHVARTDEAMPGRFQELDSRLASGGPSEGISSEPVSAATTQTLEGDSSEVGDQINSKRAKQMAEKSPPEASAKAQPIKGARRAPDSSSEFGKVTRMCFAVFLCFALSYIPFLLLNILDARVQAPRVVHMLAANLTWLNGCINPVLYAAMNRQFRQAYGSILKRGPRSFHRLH
Experiment: GPR84 [35S]GTPγS binding assay, HEPES buffer
Assay type: biochemical
Conditions: 3,3′ di indolylmethane at EC80, membranes from stable cell line over expressing GPR84
Form field: IC50 (one value per entry).

INSERT INTO assay_data (compound, measurement_target, readout_label, test_result) VALUES
  ('O=c1nc(OCC2COc3ccccc3O2)cc2n1CCc1cc(OCC3COc4ccccc4O3)ccc1-2 (stereo not shown) [compound 30]', 'GPR84 (Homo sapiens, UniProt Q9NQS5)', 'IC50', '0.01 to 100 nM'),
  ('CC(C)c1nc(COc2ccc3c(c2)CCn2c-3cc(OCC3COc4ncccc4O3)nc2=O)no1 (stereo not shown) [compound 157]', 'GPR84 (Homo sapiens, UniProt Q9NQS5)', 'IC50', '0.01 to 100 nM'),
  ('CCC(O)(C#Cc1ccc2c(c1)CCn1c-2cc(OCC2COc3ncccc3O2)nc1=O)CC (stereo not shown) [compound 186]', 'GPR84 (Homo sapiens, UniProt Q9NQS5)', 'IC50', '0.01 to 100 nM');

Entry CC(C)(Oc1ccc2c(c1)CCn1c-2cc(OCC2COc3ccccc3O2)nc1=O)C(N)=O (stereo not shown) [compound 49] , GPR84 (Homo sapiens, UniProt Q9NQS5) data, IC50 value: 0.01 to 100 nM

GET /values?item= CCOc1ccc(-c2ccc3c(c2)CCn2c-3cc(OCC3COc4ncccc4O3)nc2=O)cn1 (stereo not shown) [compound 164] &system= GPR84 (Homo sapiens, UniProt Q9NQS5) returns IC50: 0.01 to 100 nM

The compound CCN(CC)C(=O)COc1ccc2c(c1)CCn1c-2cc(OCC2COc3ccccc3O2)nc1=O (stereo not shown) [compound 66] on GPR84 (Homo sapiens, UniProt Q9NQS5): IC50 was 100 to 500 nM

Given the compound O=C(COc1ccc2c(c1)CCn1c-2cc(OCC2CCCO2)nc1=O)Nc1ccccc1 (stereo not shown) [compound 63] and test system GPR84 (Homo sapiens, UniProt Q9NQS5), the measured IC50 is 0.01 to 100 nM

Result for O=c1nc(OCC2CCCO2)cc2n1CCc1cc(OCc3ccc(Cl)cc3)ccc1-2 (stereo not shown) [compound 21] , tested on GPR84 (Homo sapiens, UniProt Q9NQS5), IC50: 0.01 to 100 nM

Form: item O=C(O)c1cccc(-c2ccc3c(c2)CCn2c-3cc(OCC3CCCO3)nc2=O)c1 (stereo not shown) [compound 103] ; test system GPR84 (Homo sapiens, UniProt Q9NQS5); IC50: 500 to 1000 nM

The compound O=c1nc(OCC2CCCO2)cc2n1CCc1cc(OCCOCc3ccccc3)ccc1-2 (stereo not shown) [compound 51] , when measured on GPR84 (Homo sapiens, UniProt Q9NQS5), yielded IC50 of 0.01 to 100 nM

# lookup: CNCC#Cc1ccc2c(c1)CCn1c-2cc(OCC2COc3ncccc3O2)nc1=O (stereo not shown) [compound 171] on GPR84 (Homo sapiens, UniProt Q9NQS5), IC50 = 500 to 1000 nM
